Tested on: M. smegmatis
Assay: Minimal bactericidal concentration
Assay type: cell-based, Mycobacterium smegmatis
Settings: Mycolicibacterium smegmatis; reduces plating efficiency more than 99.9%; minimal exposure to light
Quantity Kind: MBC (µg/mL)

O=C(O)CCC1=C(CC(=O)O)c2cc3[nH]c(cc4nc(cc5[nH]c(cc1n2)c(CC(=O)O)c5CCC(=O)O)C(CC(=O)O)=C4CCC(=O)O)c(CC(=O)O)c3CCC(=O)O [UP-1, uroporphyrin I, reference compound] :: 10
CCC1=C(CC)c2cc3[nH]c(cc4nc(cc5[nH]c(cc1n2)c(CC)c5CC)C(CC)=C4CC)c(CC)c3CC [OEP, octaethylporphine, reference compound] :: 10

* * *

Tested on: P. mirabills
Assay: Disc diffusion sensitivity test
Format: cell-based, Proteus mirabilis
Details: P. mirabilis; disc ~50 μg MP
Quantity Kind: diameter (mm) of the inhibition zone

C=CC1=C(C)c2cc3[n-]c(cc4nc(cc5[n-]c(cc1n2)c(C)c5CCC(=O)O)C(CCC(=O)O)=C4C)c(C)c3C=C.[Ti+2] [Ti-PPIX] :: -
C=CC1=C(C)c2cc3[n-]c(cc4[n-]c(cc5nc(cc1n2)C(C)=C5C=C)c(C)c4CCC(=O)[O-])c(CCC(=O)[O-])c3C.[H+].[H+].[Mn+2] [Mn-PPIX, Manganese protoporphyrin IX] :: 22 mm
C=CC1=C(C)C2=Cc3c(C=C)c(C)c4[n]3[Ga][n]3c(c(C)c(CCC(=O)O)c3=CC3=NC(=C4)C(C)=C3CCC(=O)O)=CC1=N2 [Ga-PPIX, Gallium (III) protoporphyrin IX chloride] :: 21 mm
C=CC1=C(C)C2=Cc3c(C=C)c(C)c4[n]3[Mg][n]3c(c(C)c(CCC(=O)O)c3=CC3=NC(=C4)C(C)=C3CCC(=O)O)=CC1=N2 [Mg-PPIX] :: -
C=CC1=C(C)c2cc3[n-]c(cc4nc(cc5[n-]c(cc1n2)c(C)c5CCC(=O)O)C(CCC(=O)O)=C4C)c(C)c3C=C.[Pd+2] [Pd-PPIX] :: -
O=S(=O)([O-])c1ccc(-c2c3nc(c(-c4ccc(S(=O)(=O)[O-])cc4)c4ccc([n-]4)c(-c4ccc(S(=O)(=O)[O-])cc4)c4nc(c(-c5ccc(S(=O)(=O)[O-])cc5)c5ccc2[n-]5)C=C4)C=C3)cc1.[Cl-].[Mn+3] [Mn-meso] :: -

* * *

System: M. smegmatis
Assay type: cell-based, Mycobacterium smegmatis
Conditions: M. smegmatis
Quantity Kind: antibacterial activity

CCC1=C(C)c2cc3[nH]c(cc4nc(cc5[nH]c(cc1n2)c(C)c5CCC(=O)O)C(CCC(=O)O)=C4C)c(C)c3CC [MP-IX, mesoporphyrin IX, reference compound] :: largely inactive
C=CC1=C(C)C2=Cc3c(C=C)c(C)c4[n]3[Ga][n]3c(c(C)c(CCC(=O)O)c3=CC3=NC(=C4)C(C)=C3CCC(=O)O)=CC1=N2 [Ga-PPIX, Gallium (III) protoporphyrin IX chloride] :: inhibitory
C=CC1=C(C)c2cc3[n-]c(cc4[n-]c(cc5nc(cc1n2)C(C)=C5C=C)c(C)c4CCC(=O)[O-])c(CCC(=O)[O-])c3C.[H+].[H+].[Mn+2] [Mn-PPIX, Manganese protoporphyrin IX] :: inhibitory
O=C(O)CCC1=C(CC(=O)O)c2cc3[nH]c(cc4nc(cc5[nH]c(cc1n2)c(CC(=O)O)c5CCC(=O)O)C(CC(=O)O)=C4CCC(=O)O)c(CC(=O)O)c3CCC(=O)O [UP-1, uroporphyrin I, reference compound] :: largely inactive

* * *

Test system: E. coli
Test: Disc diffusion sensitivity test
Type: cell-based, Escherichia coli
Details: E. coli; disc ~50 μg MP
Quantity Kind: diameter (mm) of the inhibition zone

C=CC1=C(C)C2=Cc3c(C=C)c(C)c4[n]3[Ga][n]3c(c(C)c(CCC(=O)O)c3=CC3=NC(=C4)C(C)=C3CCC(=O)O)=CC1=N2 [Ga-PPIX, Gallium (III) protoporphyrin IX chloride] :: 24 mm
C=CC1=C(C)C2=Cc3c(C=C)c(C)c4[n]3[Mg][n]3c(c(C)c(CCC(=O)O)c3=CC3=NC(=C4)C(C)=C3CCC(=O)O)=CC1=N2 :: -
C=CC1=C(C)c2cc3[n-]c(cc4nc(cc5[n-]c(cc1n2)c(C)c5CCC(=O)O)C(CCC(=O)O)=C4C)c(C)c3C=C.[Ti+2] :: -
O=S(=O)([O-])c1ccc(-c2c3nc(c(-c4ccc(S(=O)(=O)[O-])cc4)c4ccc([n-]4)c(-c4ccc(S(=O)(=O)[O-])cc4)c4nc(c(-c5ccc(S(=O)(=O)[O-])cc5)c5ccc2[n-]5)C=C4)C=C3)cc1.[Cl-].[Mn+3] :: -
C=CC1=C(C)c2cc3[n-]c(cc4nc(cc5[n-]c(cc1n2)c(C)c5CCC(=O)O)C(CCC(=O)O)=C4C)c(C)c3C=C.[Pd+2] :: -
C=CC1=C(C)c2cc3[n-]c(cc4[n-]c(cc5nc(cc1n2)C(C)=C5C=C)c(C)c4CCC(=O)[O-])c(CCC(=O)[O-])c3C.[H+].[H+].[Mn+2] :: -

* * *

Tested on: M. smegmatis
Assay type: cell-based, Mycobacterium smegmatis
Conditions: M. smegmatis LR222; LB + Tween 80 (Table 2)
Measured Minimal inhibitory concentration (MIC), listed per entry.
Quantity Kind: Minimal inhibitory concentration (MIC) (µg/mL)

C=Cc1c(C)c2cc3[nH]c(cc4nc(cc5nc(cc1[nH]2)C(C)=C5CCC(=O)[O-])C(CCC(=O)[O-])=C4C)c(C)c3C=C.[Co+2] [Co-PPIX] :: 20
C=CC1=C(C)c2cc3[n-]c(cc4nc(cc5[n-]c(cc1n2)c(C)c5CCC(=O)O)C(CCC(=O)O)=C4C)c(C)c3C=C.[Pd+2] [Pd-PPIX] :: 20
C=CC1=C(C)c2cc3[n-]c(cc4[n-]c(cc5nc(cc1n2)C(C)=C5C=C)c(C)c4CCC(=O)[O-])c(CCC(=O)[O-])c3C.[H+].[H+].[Mn+2] [Mn-PPIX, Manganese protoporphyrin IX] :: 0.8
C=CC1=C(C)c2cc3[n-]c(cc4nc(cc5[n-]c(cc1n2)c(C)c5C=C)C(C)=C4CCC(=O)O)c(CCC(=O)O)c3C.[Zn+2] [Zn-PPIX] :: 20
C=CC1=C(C)c2cc3[n-]c(cc4[n-]c(cc5nc(cc1n2)C(C)=C5C=C)c(C)c4CCC(=O)[O-])c(CCC(=O)[O-])c3C.[H+].[H+].[Ni+2] [Ni-PPIX] :: 20
C=Cc1c2[n-]c(c1C)/C=c1\[n-]/c(c(C)c1C=C)=C\c1[n-]c(c(CCC(=O)O)c1C)C=c1[n-]/c(c(C)c1CCC(=O)O)=C\2.[Sn+4] [Sn-PPIX, tin-protoporphyrin IX] :: 20

* * *

Test system: M. smegmatis
Format: cell-based, Mycobacterium smegmatis
Settings: M. smegmatis LR222; LB + Tween 80 (Table 2)
Measured Minimal inhibitory concentration (MIC), listed per entry.
Quantity Kind: Minimal inhibitory concentration (MIC) (µg/mL)

C=CC1=C(C)c2cc3[n-]c(cc4nc(cc5[n-]c(cc1n2)c(C)c5CCC(=O)O)C(CCC(=O)O)=C4C)c(C)c3C=C.[Pt+2] :: 20
C=CC1=C(C)C2=Cc3c(C=C)c(C)c4[n]3[Ga][n]3c(c(C)c(CCC(=O)O)c3=CC3=NC(=C4)C(C)=C3CCC(=O)O)=CC1=N2 [Ga-PPIX, Gallium (III) protoporphyrin IX chloride] :: 0.4
C=CC1=C(C)c2cc3[n-]c(cc4nc(cc5[n-]c(cc1n2)c(C)c5CCC(=O)O)C(CCC(=O)O)=C4C)c(C)c3C=C.[Ru+2] :: 20
C=CC1=C(C)c2cc3[n-]c(cc4[n-]c(cc5nc(cc1n2)C(C)=C5C=C)c(C)c4CCC(=O)O)c(CCC(=O)O)c3C.[Cu+2] :: 20
C=CC1=C(C)c2cc3[n-]c(cc4nc(cc5[n-]c(cc1n2)c(C)c5CCC(=O)O)C(CCC(=O)O)=C4C)c(C)c3C=C.[Cr+2] :: 20

* * *

Tested on: Y. enterocolitica
Assay: Disc diffusion sensitivity test
Format: cell-based
Conditions: disc ~50 μg MP
Quantity Kind: diameter (mm) of the inhibition zone

C=CC1=C(C)C2=Cc3c(C=C)c(C)c4[n]3[Ga][n]3c(c(C)c(CCC(=O)O)c3=CC3=NC(=C4)C(C)=C3CCC(=O)O)=CC1=N2 [Ga-PPIX, Gallium (III) protoporphyrin IX chloride] :: 28 mm
C=CC1=C(C)c2cc3[n-]c(cc4[n-]c(cc5nc(cc1n2)C(C)=C5C=C)c(C)c4CCC(=O)[O-])c(CCC(=O)[O-])c3C.[H+].[H+].[Mn+2] [Mn-PPIX, Manganese protoporphyrin IX] :: 30 mm
C=CC1=C(C)c2cc3[n-]c(cc4nc(cc5[n-]c(cc1n2)c(C)c5C=C)C(C)=C4CCC(=O)O)c(CCC(=O)O)c3C.[Zn+2] [Zn-PPIX] :: -
C=CC1=C(C)c2cc3[n-]c(cc4nc(cc5[n-]c(cc1n2)c(C)c5CCC(=O)O)C(CCC(=O)O)=C4C)c(C)c3C=C.[Cr+2] [Cr-PPIX] :: -
C=CC1=C(C)C2=Cc3c(C=C)c(C)c4[n]3[Mg][n]3c(c(C)c(CCC(=O)O)c3=CC3=NC(=C4)C(C)=C3CCC(=O)O)=CC1=N2 [Mg-PPIX] :: -
C=CC1=C(C)c2cc3[n-]c(cc4nc(cc5[n-]c(cc1n2)c(C)c5CCC(=O)O)C(CCC(=O)O)=C4C)c(C)c3C=C.[Ru+2] [Ru-PPIX] :: -
